- Test system: N140
- PROCEDURE_SUMMARY: qHTS profiling for inhibitors of Plasmodium falciparum proliferation (AID 504749); also: nearly all actives have a fitted effect of over 60% in size
- CONDITION_PARAMETERS: P. falciparum in erythrocytes, SYBR Green DNA, 72 h; series mostly up to 28.7 µM
Inconclusive results are not listed. Calls of active or inactive are those of the source. Calls follow the shape of the dose curve; as a rule, active = well fitted inhibition curve with a large enough effect; inconclusive = small, poorly fitted or top-dose-only effect; inactive = flat fitted curve, though single readings scatter.
Labels: 1.0 (active), 0.0 (inactive)

NCCCCCC(=O)O; 0.0
O=C(Nc1ccc([N+](=O)[O-])cc1Cl)c1cc(Cl)ccc1O; 1.0
CN1CCN2c3ccccc3Cc3ccccc3C2C1 (configuration not stated); 0.0
CC(C)Cc1ccc(C(C)C(=O)O)cc1 (configuration not stated); 0.0
COc1ccccc1OCC(O)CN1CCN(CC(=O)Nc2c(C)cccc2C)CC1 (configuration not stated); 0.0
Clc1ccc2nsnc2c1NC1=NCCN1; 0.0
CC(=O)OCC(CCn1cnc2cnc(N)nc21)COC(C)=O; 0.0
CC(CCc1ccc(O)cc1)NCCc1ccc(O)c(O)c1 (configuration not stated); 0.0
O=c1c(-c2ccc(O)cc2)coc2cc(O)cc(O)c12; 0.0
COc1ccc2[nH]cc(CCNC(C)=O)c2c1; 0.0
CC[N+](CC)(CC)CCOc1cccc(OCC[N+](CC)(CC)CC)c1OCC[N+](CC)(CC)CC; 0.0
CC(C)(C)C(=O)Oc1ccc(S(=O)(=O)Nc2ccccc2C(=O)NCC(=O)O)cc1; 0.0
O=C1c2c(O)ccc(O)c2C(=O)c2c(NCCNCCO)ccc(NCCNCCO)c21; 1.0
CCCCc1oc2ccccc2c1C(=O)c1cc(I)c(OCCN(CC)CC)c(I)c1; 1.0
Cn1c(=O)c2c(ncn2C)n(C)c1=O; 0.0
CS(=O)(=O)CCNCc1ccc(-c2ccc3ncnc(Nc4ccc(OCc5cccc(F)c5)c(Cl)c4)c3c2)o1; 0.0
NCCc1cnc[nH]1; 0.0
CN(C)CCC=C1c2ccccc2C=Cc2ccccc21; 0.0
COc1cc2c(c(OC)c1OC)-c1ccc(OC)c(=O)cc1[C@@H](NC(C)=O)CC2; 0.0
Cc1ccc(C(=O)Nc2ccc(S(=O)(=O)O)c3cc(S(=O)(=O)O)cc(S(=O)(=O)O)c23)cc1NC(=O)c1cccc(NC(=O)Nc2cccc(C(=O)Nc3cc(C(=O)Nc4ccc(S(=O)(=O)O)c5cc(S(=O)(=O)O)cc(S(=O)(=O)O)c45)ccc3C)c2)c1; 0.0
O=C(c1ccc(OCCN2CCCCC2)cc1)c1c(-c2ccc(O)cc2)sc2cc(O)ccc12; 1.0
COc1nc(C)nc(Cl)c1NC1=NCCN1; 0.0
